# assay system: kappa opioid receptor (OPRK1) (Homo sapiens (Human))
# test method notes: OPRK1 antagonist assay (b-arrestin-2-TEV / b-lactamase reporter cell line, EC80 U-50488 challenge)
# Assay type: cell-based
# experimental parameters: read-out: IC50 nM (% inhib if other than 50%); antagonist mode vs EC80 U-50488; NA = not active at concentrations up to 10 μM
reported property: IC50 (nM)

These solved cases illustrate the format of a correct answer.
Cc1ccc2nc(N3CCC(NC4CCCCC4)C(CO)C3)c(-c3nc(C4CC4)no3)cc2c1 (centres unmarked) = 3.5
Cc1cnc(N2CCC(NC3CCCCC3)C(C)C2)c(-c2nc(C)no2)c1 (centres unmarked) = 180

1: COC(=O)c1cc(Cl)cnc1N1CCC(NC2CCCCC2)C(CO)C1 (centres unmarked)
2: CO[C@H]1CN(c2ncc(C)cc2C(=O)OC(C)C)CC[C@H]1NC1CCCCC1
3: Cc1ccc2nc(N3CCC(Nc4ncccn4)CC3)c(-c3nc(C)no3)cc2c1
4: COC1CN(c2nc(C)c(C)cc2-c2nc(C)no2)CCC1NC1CCCCC1 (centres unmarked) [compound 165]
5: CO[C@H]1CN(c2nc3ccc(C)cc3cc2C(C)=O)CC[C@H]1NC1CCCCC1
hey, can you rank those molecules up there by IC50? biggest number first please Returns: the labels listed in the requested order.
3, 5, 1, 4, 2

====

# assay system: kappa opioid receptor (OPRK1) (Homo sapiens (Human), UniProt P41145)
# Sequence (P41145 whole entry): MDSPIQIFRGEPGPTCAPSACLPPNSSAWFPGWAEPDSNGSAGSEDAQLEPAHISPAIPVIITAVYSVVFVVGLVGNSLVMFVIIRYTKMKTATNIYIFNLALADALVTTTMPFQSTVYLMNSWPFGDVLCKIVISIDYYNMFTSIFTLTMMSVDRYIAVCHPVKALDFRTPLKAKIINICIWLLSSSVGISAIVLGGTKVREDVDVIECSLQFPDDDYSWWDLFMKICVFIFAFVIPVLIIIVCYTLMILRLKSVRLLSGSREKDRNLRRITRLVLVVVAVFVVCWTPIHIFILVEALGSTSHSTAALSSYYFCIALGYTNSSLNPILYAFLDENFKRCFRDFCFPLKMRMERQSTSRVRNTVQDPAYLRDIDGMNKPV
# test method notes: OPRK1 antagonist assay (b-arrestin-2-TEV / b-lactamase reporter cell line, EC80 U-50488 challenge)
# Format: cell-based
# experimental parameters: read-out: IC50 nM (% inhib if other than 50%); antagonist mode vs EC80 U-50488; NA = not active at concentrations up to 10 μM
reported property: IC50 (nM)

These solved cases illustrate the format of a correct answer.
COC1CN(c2nc3ccccc3cc2-c2ncccn2)CCC1NC1CCCCC1 (stereo not shown) = 1770
COC(=O)c1cc(Br)cnc1N1CCC(NC2CCCCC2C)C(CO)C1 (stereo not shown) = 87
COC(=O)c1cc(I)cnc1N1CCC(NC2CCOCC2)C(CO)C1 (stereo not shown) = 186
O=Cc1cc(Br)cnc1N1CC[C@@H](NC2CCCCC2)[C@H](O)C1 = 799
Cc1nc(-c2cc3cc(C)c(F)cc3nc2N2CCC(NCC(C)C)CC2)no1 = 27

1: CO[C@H]1CN(c2nc3cc(F)ccc3cc2-c2nc(C)no2)CC[C@H]1NC1CCCCC1
2: CCOC(=O)c1cc(Br)cnc1N1CCC(NC2CCCC[C@@H]2O)CC1 (stereo partly shown)
Which value of IC50 is numerically greater: that of 1 or that of 2 ? Please indicate the selected item by its label.
2

====

# assay system: UniProt:P41145
# test method notes: OPRK1 antagonist assay (b-arrestin-2-TEV / b-lactamase reporter cell line, EC80 U-50488 challenge)
# Type: cell-based
# experimental parameters: read-out: IC50 nM (% inhib if other than 50%); antagonist mode vs EC80 U-50488; NA = not active at concentrations up to 10 μM
reported property: IC50 (nM)

These solved cases illustrate the format of a correct answer.
COC(=O)c1cc(N)cnc1N1CCC(NC2CCCCC2)CC1 [compound 85] = 1800
Cc1ccc2nc(N3CCC(NC4CCCCC4)C(CO)C3)c(-c3nnc(C)o3)cc2c1 (stereo not drawn) [compound 301] = 38

I: Cc1nc(-c2cc3cc(C)c(F)cc3nc2N2CCC(NC3CCCC3)CC2)no1 [compound 512]
II: Cc1noc(-c2cc(Br)cnc2N2CCC(NC3CCCCC3)C(CO)C2)n1 (stereo not drawn) [compound 145]
III: CCOC(=O)c1cc2cc(C)ccc2nc1N1CCC(NC2CCOCC2)CC1 [compound 289]
hey, can you rank those molecules up there by IC50? biggest number first please Returns: the labels listed in the requested order.
III, II, I
(III: 184 nM, II: 117 nM, I: 12 nM)
